These data points were gathered from patent US9409952B2.

Test Method Notes: Metabolic stability in human hepatic microsome
Format: in vitro ADME
Reported Conditions: microsomes, pH 7.4; human hepatic microsome, NADPH(+); read-out: CL NADPH(+)
Positions of bridges follow the written chain, without caps; N, C: chain ends. Non-standard residues stand in square brackets, D forms with d. Residues, ends and D or L forms follow the SMILES beside them. *: point of attachment. NMeF = CN[C@@H](Cc1ccccc1)C(=O)O; NMeL = CN[C@@H](CC(C)C)C(=O)O; NMeV = CN[C@H](C(=O)O)C(C)C; NMeA = CN[C@@H](C)C(=O)O; Piperidide = C1CCN(*)CC1; dNMeA = CN[C@H](C)C(=O)O
Assay Endpoint: microsomal CLint at 1 uM (µL/min/mg)
Give the number; µL/min/mg is assumed, so skip it.

Would you kindly share the measured microsomal CLint at 1 uM for CC(C)C[C@H]1C(=O)N[C@@H](C)C(=O)N(C)[C@@H](Cc2ccccc2)C(=O)N(C)[C@@H](C(C)C)C(=O)N[C@@H](C)C(=O)N(C)[C@@H](C)C(=O)N[C@H](C(=O)N(C)[C@@H](Cc2ccccc2)C(=O)N[C@@H](C)C(=O)N2CCCCC2)CC(=O)N(C)[C@@H](C)C(=O)N(C)[C@@H](Cc2ccccc2)C(=O)N[C@@H]([C@@H](C)O)C(=O)N(C)[C@@H](C)C(=O)N1C [DP-367] ([NMeA][NMeF]T[NMeA][NMeL]A[NMeF][NMeV]A[NMeA]D[NMeF]A-Piperidide; lactam N-11) ?
17

CC(C)C[C@H]1C(=O)N(C)[C@@H](CC(C)C)C(=O)N[C@@H]([C@@H](C)O)C(=O)N(C)[C@@H](Cc2ccccc2)C(=O)N(C)[C@@H](CC(C)C)C(=O)N[C@H](C(=O)N(C)[C@@H](Cc2ccccc2)C(=O)N(C)[C@@H](Cc2ccccc2)C(=O)N[C@@H](C)C(=O)N2CCCCC2)CC(=O)N(C)[C@H](C)C(=O)N(C)[C@@H](Cc2ccccc2)C(=O)N(C)[C@@H](CC(C)C)C(=O)N[C@@H](C)C(=O)N1C [DP-207] ([dNMeA][NMeF][NMeL]A[NMeL][NMeL]T[NMeF][NMeL]D[NMeF][NMeF]A-Piperidide; lactam N-10) ?
12
